System: Colo-357
Experiment: cells
Parameters: ATPlite luminescence viability of PDAC cell lines, 11-dose single-agent curves, 4-parameter fit
Conditions: Homo sapiens, COLO357, 72 h, read-out: EC50 [nM]
Grouping rule (EC50): low interval: < 200 nM; middle interval: ≥ 200 nM and < 6000 nM; high interval: ≥ 6000 nM

Reference set (6 entries):
Smiles: C=CCn1c(=O)c2cnc(Nc3ccc(N4CCN(C)CC4)cc3)nc2n1-c1cccc(C(C)(C)O)n1
Answer label: low interval
--
Smiles: CCCCCCCCCCCCCCCCCCOP(=O)([O-])OC1CC[N+](C)(C)CC1
Answer label: high interval
--
Smiles: C#Cc1cccc(Nc2ncnc3cc(OCCOC)c(OCCOC)cc23)c1
Answer label: middle interval
--
Smiles: CC1(C)CC=C(c2nc(C3CC(C)(C)OC(C)(C)C3)ccc2NC(=O)c2nc(C#N)c[nH]2)CC1
Answer label: middle interval
--
Smiles: COc1cc2c(Oc3ccc4[nH]c(C)cc4c3F)ncnc2cc1OCCCN1CCCC1
Answer label: high interval
--
Smiles: COc1cc2ncnc(Nc3cccc(Cl)c3F)c2cc1OC(=O)N1CCN(C)C[C@H]1C
Answer label: middle interval

Query :: Note: place this compound into its band. Item: CC(C)n1nc(-c2ccc3oc(N)nc3c2)c2c(N)ncnc21
Result :: low interval

Query :: Note: place this compound into its band. Item: CC(C)NC(=O)[C@H]1CC[C@@H](n2/c(=N/C(=O)c3ccc(F)cc3)[nH]c3ccc(CN4CCC(C(C)(C)O)CC4)cc32)CC1
Result :: high interval

Query :: Note: place this compound into its band. Item: Cc1cc(Nc2ncnc3ccc(NC4=NC(C)(C)CO4)cc23)ccc1Oc1ccn2ncnc2c1
Result :: middle interval

###

System: FAMPAC
Experiment: cells
Parameters: ATPlite luminescence viability of PDAC cell lines, 11-dose single-agent curves, 4-parameter fit
Details: 72 h, read-out: EC50 [nM]
Quick reference for EC50 among some molecules

Here are 2 molecules together with their reported answers.
Smiles: Cc1ccc(NC(=O)c2ccc(CN3CCN(C)CC3)cc2)cc1Nc1nc(-c2cccnc2)cs1
Observed measurement: > 10000 nM

Smiles: CN1CCC(COc2cnc(-c3cccc(Cn4nc(-c5cccc(C#N)c5)ccc4=O)c3)nc2)CC1
Observed measurement: > 10000 nM

# context switch: different molecule, same EC50
Query :: # return recorded EC50 for entry COc1cc2c(Oc3ccc4[nH]c(C)cc4c3F)ncnc2cc1OCCCN1CCCC1
Result :: > 10000 nM

###

Tested on: MiaPaCa-2
Experiment: cells
Set-up: ATPlite luminescence viability of PDAC cell lines, 11-dose single-agent curves, 4-parameter fit
Details: Homo sapiens, MIA PaCa-2, 72 h, read-out: EC50 [nM]
Quick reference for EC50 among some compounds
// return numeric value only (unit: nM, not printed)

Smiles: CNC(=O)c1cc(Oc2ccc(NC(=O)Nc3ccc(Cl)c(C(F)(F)F)c3)c(F)c2)ccn1
Measurement units: nM
EC50: 4480

Query :: # return recorded EC50 for entry O=C(c1ccc(F)c(F)c1Nc1ccc(I)cc1F)N1CC(O)([C@@H]2CCCCN2)C1
Result :: 6.21

Query :: # return recorded EC50 for entry COC(=O)c1ccc2c(c1)NC(=O)/C2=C(\Nc1ccc(N(C)C(=O)CN2CCN(C)CC2)cc1)c1ccccc1
Result :: 1030

Query :: # return recorded EC50 for entry C[C@@H]1CN(C(=O)c2ccc(NC(=O)c3cc(O[C@H](C)c4c(Cl)ccc(F)c4Cl)c(N)nn3)cc2)C[C@H](C)N1
Result :: 791

// data source = paper PMC11876601
